src = patent US4738979A

System: bicuculline-induced tonic extension in mice
Test: protection against bicuculline-induced tonic extension in mice
Assay type: in vivo
Settings: Mus musculus, iv, 3 hours prior to bicuculline 0.7 mg/kg i.v., read-out: Anticonvulsive effect (versus Bicuculline) (% Protection)
Label 0 if responders at 10 mg/kg falls below 20%; label 1 in every other case.

The following compounds have reported results that may help.
compound: COc1ccc(C(Cc2c[nH]cn2)c2ccc(OC)cc2)cc1
classification: 0

compound: COC(c1c[nH]c(C)n1)C(c1ccccc1)c1ccccc1 (stereo not shown)
classification: 0

compound: Cc1ccc(C(Cc2c[nH]cn2)c2ccccc2)c(C)c1 (stereo not shown)
classification: 0

compound: Cc1ccc(C(Cc2c[nH]cn2)c2ccccc2)cc1 (stereo not shown)
classification: 1

compound: Cc1ccccc1C(Cc1c[nH]cn1)c1ccccc1 (stereo not shown)
classification: 1

compound: CC(O)(c1c[nH]cn1)C(c1ccccc1)c1ccccc1 (stereo not shown)
classification: 0

Read the next record carefully.
Check if responders at 10 mg/kg >= 20% (inclusive). Item: CC(Cc1c[nH]cn1)(c1ccccc1)c1ccccc1 [Compound 10, 4(5)-[1-(2,2-diphenyl)-propyl]imidazole] 1

----------
System: α1 -adrenergic receptors
Test: binding to α1-adrenergic receptors on rat brain homogenates (3H-WB 4101)
Conditions: 1.6 nM 3H-WB 4101
Classify as follows. Reported % Inhibition of the Specific Binding at 10^-7 M for α1 Recep. greater than or equal to 7%: Fulfilled. Reported % Inhibition of the Specific Binding at 10^-7 M for α1 Recep. below: Not fulfilled.

molecule: COC(=O)c1ccccc1C(Cc1c[nH]cn1)c1ccccc1 (stereo not shown)
classification: Fulfilled

molecule: OC(c1c[nH]cn1)C(c1ccccc1)c1ccccc1 (stereo not shown)
classification: Not fulfilled

molecule: Cc1ccc(C)c(C(Cc2c[nH]cn2)c2ccccc2)c1 (stereo not shown)
classification: Not fulfilled

Say whether COc1ccc(C(Cc2c[nH]cn2)c2ccccc2)cc1 (stereo not shown) shows % Inhibition of the Specific Binding at 10^-7 M for α1 Recep. of 7% or more. Not fulfilled

Try `CCCC(=C(c1ccccc1)c1ccccc1)c1c[nH]cn1` next. Not fulfilled

COC(c1c[nH]cn1)C(c1ccccc1)c1ccccc1 (stereo not shown) , same question. Not fulfilled

Another molecule to look at: CC(O)(c1c[nH]cn1)C(c1ccccc1)c1ccccc1 (stereo not shown) Not fulfilled

What do you get for Fc1ccccc1C(Cc1c[nH]cn1)c1ccccc1 (stereo not shown) ? Fulfilled

And the next one, O=C(O)c1ccccc1C(Cc1c[nH]cn1)c1ccccc1 (stereo not shown) ? Fulfilled

----------
Test system: bicuculline-induced tonic extension in mice
Test: protection against bicuculline-induced tonic extension in mice
Format: in vivo
Conditions: Mus musculus, iv, 3 hours prior to bicuculline 0.7 mg/kg i.v., read-out: Anticonvulsive effect (versus Bicuculline) (% Protection)
test readout: responders at 10 mg/kg (%)
Just the number in %, nothing appended.

Example entries and their recorded answers appear below.
compound: Cc1ccc(C)c(C(Cc2c[nH]cn2)c2ccccc2)c1 (centres unmarked)
assayed target: bicuculline-induced tonic extension in mice
numeric result: 20
//
compound: CCCC(=C(c1ccccc1)c1ccccc1)c1c[nH]cn1
assayed target: bicuculline-induced tonic extension in mice
numeric result: 50
//
compound: OC(c1c[nH]cn1)C(c1ccccc1)c1ccccc1 (centres unmarked)
assayed target: bicuculline-induced tonic extension in mice
numeric result: 30
//
compound: c1ccc(C(Cc2c[nH]cn2)(c2ccccc2)c2ccccc2)cc1
assayed target: bicuculline-induced tonic extension in mice
numeric result: 20
//
compound: COC(c1c[nH]cn1)C(c1ccccc1)c1ccccc1 (centres unmarked)
assayed target: bicuculline-induced tonic extension in mice
numeric result: 30
//
compound: Cc1ccc(C(Cc2c[nH]cn2)c2ccccc2)cc1C (centres unmarked)
assayed target: bicuculline-induced tonic extension in mice
numeric result: 20
//
compound: c1ccc(C(Cc2c[nH]cn2)c2ccccc2)cc1
assayed target: bicuculline-induced tonic extension in mice
numeric result: 0
//
compound: Fc1ccc(C(Cc2c[nH]cn2)c2ccccc2F)cc1 (centres unmarked)
assayed target: bicuculline-induced tonic extension in mice
numeric result: 0
//
compound: Fc1ccc(C(Cc2c[nH]cn2)c2ccccc2)cc1 (centres unmarked)
assayed target: bicuculline-induced tonic extension in mice
numeric result: 0
//
compound: Cc1[nH]cnc1CC(c1ccccc1)c1ccccc1
assayed target: bicuculline-induced tonic extension in mice
numeric result: 20

# context switch: different compound, same responders at 10 mg/kg
I'd like to know its responders at 10 mg/kg. The compound in question is CCCC(OC)(c1c[nH]cn1)C(c1ccccc1)c1ccccc1 (centres unmarked) 60

----------
Catalogue of α2 Antagonist (% Inhibition of the Antihypertension of Clonidine) values
System: α2 adrenergic receptors of the central nervous system
Test: inhibition of the antihypertensive action of clonidine in spontaneously hypertensive rats (SHR)
Format: in vivo, rat
Conditions: 1 mg/kg p.o., clonidine 50 μg/kg s.c.
Report the value in % with no unit label.

Some entries whose results are on file:
molecule: COc1ccc(C(Cc2c[nH]cn2)c2ccc(OC)cc2)cc1
numeric result: 40
//
molecule: c1ccc(C(Cc2c[nH]cn2)c2ccccc2)cc1
numeric result: 50

State the recorded α2 Antagonist (% Inhibition of the Antihypertension of Clonidine) for this entry: `CCCC(=C(c1ccccc1)c1ccccc1)c1c[nH]cn1` 47

Note, next up: Cc1ccc(C)c(C(Cc2c[nH]cn2)c2ccccc2)c1 (stereo not drawn) 69

And the next one, `c1ccc(C(Cc2c[nH]cn2)(c2ccccc2)c2ccccc2)cc1` ? 28

What about CC(O)(c1c[nH]cn1)C(c1ccccc1)c1ccccc1 (stereo not drawn) ? 67

Moving on to Cc1ccccc1C(Cc1c[nH]cn1)c1ccccc1 (stereo not drawn) 78

Another: `C(=C(c1ccccc1)c1ccccc1)c1c[nH]cn1` 48

What would you report for Cc1ccc(C(Cc2c[nH]cn2)c2ccccc2)cc1C (stereo not drawn) ? 57

Can you handle Clc1ccccc1C(Cc1c[nH]cn1)c1ccccc1 (stereo not drawn) next? 46

CC(c1c[nH]cn1)C(c1ccccc1)c1ccccc1 (stereo not drawn) , same question. 68

Another: Fc1ccc(C(Cc2c[nH]cn2)c2ccccc2F)cc1 (stereo not drawn) 75

----------
Test system: bicuculline-induced tonic extension in mice
Experiment: protection against bicuculline-induced tonic extension in mice
Format: in vivo
Details: Mus musculus, iv, 3 hours prior to bicuculline 0.7 mg/kg i.v., read-out: Anticonvulsive effect (versus Bicuculline) (% Protection)
test readout: responders at 10 mg/kg (%)
Give a bare numeral; the unit % is implied.

Worked examples, 4 compounds total:
compound: CCCC(c1c[nH]cn1)C(c1ccccc1)c1ccccc1 (centres unmarked) [Compound 19, 4(5)-[2-(1,1-diphenyl)pentyl]imidazole]
numeric result: 40
//
compound: COc1ccc(C(Cc2c[nH]cn2)c2ccccc2)cc1 (centres unmarked)
numeric result: 10
//
compound: Cc1nc(CC(c2ccccc2)c2ccccc2)c[nH]1
numeric result: 10
//
compound: CC(c1c[nH]cn1)C(c1ccccc1)c1ccccc1 (centres unmarked)
numeric result: 40

In the following, a different compound is considered.
Find the recorded responders at 10 mg/kg belonging to `C(=C(c1ccccc1)c1ccccc1)c1c[nH]cn1` and report it. 40

----------
Target: α2 -adrenergic receptors (Rattus norvegicus)
Construct: from tissue; host or cells: rat brain homogenates
Sequence (P22909 whole entry): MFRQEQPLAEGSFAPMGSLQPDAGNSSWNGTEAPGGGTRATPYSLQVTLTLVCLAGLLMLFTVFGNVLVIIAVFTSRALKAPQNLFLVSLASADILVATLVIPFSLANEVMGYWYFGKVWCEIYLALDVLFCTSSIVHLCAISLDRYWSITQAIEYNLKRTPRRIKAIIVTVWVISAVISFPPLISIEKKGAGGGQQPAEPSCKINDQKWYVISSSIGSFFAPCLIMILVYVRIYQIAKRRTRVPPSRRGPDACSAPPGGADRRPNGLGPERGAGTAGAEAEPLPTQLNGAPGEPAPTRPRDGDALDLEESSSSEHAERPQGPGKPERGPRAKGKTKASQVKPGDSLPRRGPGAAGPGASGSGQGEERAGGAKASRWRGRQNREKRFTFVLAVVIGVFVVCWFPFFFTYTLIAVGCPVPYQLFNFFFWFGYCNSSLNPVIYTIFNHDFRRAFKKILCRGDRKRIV
Assay: binding to α2-adrenergic receptors on rat brain homogenates (3H-p. aminoclonidine)
Settings: 10^-7 M; rat brain homogenates; 0.7 nM 3H-p. aminoclonidine; read-out: % Inhibition of the Specific Binding at 10^-7 M for α2 Recep.
test readout: inhibition at 0.1 µM (%)
Answer with a number only, understood to be in %.

Before answering, review these 5 worked examples.
compound: Cc1ccc(C(Cc2c[nH]cn2)c2ccccc2)c(C)c1 (stereo not drawn)
test readout: inhibition at 0.1 µM
reading unit: %
numeric result: 34

compound: c1ccc(-c2ccc(C(Cc3c[nH]cn3)c3ccccc3)cc2)cc1 (stereo not drawn)
test readout: inhibition at 0.1 µM
reading unit: %
numeric result: 23

compound: Cc1ccc(C(Cc2c[nH]cn2)c2ccccc2)cc1 (stereo not drawn)
test readout: inhibition at 0.1 µM
reading unit: %
numeric result: 74

compound: Cc1[nH]cnc1CC(c1ccccc1)c1ccccc1
test readout: inhibition at 0.1 µM
reading unit: %
numeric result: 23

compound: Fc1ccccc1C(Cc1c[nH]cn1)c1ccccc1 (stereo not drawn)
test readout: inhibition at 0.1 µM
reading unit: %
numeric result: 95

I have this compound here, `Cc1nc(CC(c2ccccc2)c2ccccc2)c[nH]1` , and I need its recorded inhibition at 0.1 µM. 3

Now the same for CCCC(OC)(c1c[nH]cn1)C(c1ccccc1)c1ccccc1 (stereo not drawn) 6

Same for Cc1ccc(C)c(C(Cc2c[nH]cn2)c2ccccc2)c1 (stereo not drawn) 31

And the next one, CC(O)(c1c[nH]cn1)C(c1ccccc1)c1ccccc1 (stereo not drawn) ? 10

What about this compound? CC(c1c[nH]cn1)C(c1ccccc1)c1ccccc1 (stereo not drawn) 5

Likewise for `c1ccc(C(Cc2c[nH]cn2)c2ccccc2)cc1` ? 89

Follow-up item: COC(c1c[nH]c(C)n1)C(c1ccccc1)c1ccccc1 (stereo not drawn) 2
